testSystem: T1, MICA008.His (human MICA*008 alpha 3 domain, His tagged) (human)
T1 construct: Also used for FPOP (expressed in CHO); also called huMICA*008 alpha 3-his; MICA*008 a3
T1 chain: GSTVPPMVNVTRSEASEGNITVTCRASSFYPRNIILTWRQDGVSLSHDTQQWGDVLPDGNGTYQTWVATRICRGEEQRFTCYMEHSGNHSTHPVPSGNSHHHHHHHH
assayMethodText: SPR, antibody captured;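 further: SPR with antibody held by surface-bound anti-Fc while His-tagged alpha three domains flow over, Kd derived by fitting a one-to-one binding model to sensograms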
So I've got a bunch of binders here, and I need their Kd values.
# number then unit; no other words

The following binders have reported results that may help.
{"columns": ["binder", "valueReported"],
 "data": [
  ["6E12.5 (antibody, V domains shown, Mouse hybridoma antibody; constant regions differ by assay) VH: EVQLVESGGGLVKPGGSLKLSCAASGFTFSDYYMYWVRQTPEKRLEWVATISDGITYTYYSDSVRGRFTISRDNAENTLYLQMSSLKSEDTAMYYCSKGGGSTARGALDFWGQGTSVTVSS VL: DIQMNQSPSSLSASLGDTITITCHASQNIHVWLSWYQQKPGNIPKLLIYGASHLHTGVPSRFSGRGSGTGFTLTISSLQPEDIATYYCLQGQSYPLTFGSGTKVEIK", "15100 pM"],
  ["20G11 (antibody, V domains shown, Mouse hybridoma antibody; constant regions differ by assay) VH: DVQLVESGGGLVQPGGSRKLSCAASGFTFSTFGIHWVRQAPEKGLEWVAYISYDSRTIYYADTVKGRFTISRDNPKNTLFLQMTSLRSEDTAMYYCARWAYEGGVNYFDNWGQGTTLTVSS VL: QIVLTQSPAIMSASLGERVTMTCTATSGVSSSYLHWYQQKPGSSPKLWIYSSSNLASGVPARFSGSGSGTSYSLTIGSMEAEDAATYYCHQFHRSPLTFGTGTKVEIK", "770 pM"]
]}

Then this binder:
Enquiry: State the recorded Kd for this entry: 13A9 (antibody, V domains shown, Mouse variable domains; constant regions differ by assay) VH: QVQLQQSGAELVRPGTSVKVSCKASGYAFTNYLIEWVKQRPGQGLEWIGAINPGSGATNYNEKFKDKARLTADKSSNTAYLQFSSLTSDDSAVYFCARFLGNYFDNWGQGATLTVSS VL: DIQMTQSPASLSASVGETVTITCRASGNIHSYLAWYQQKQGKSPQLLVYYAETLADGVPSRFSGRGSGTQYSLKINSLQPEDFGSYFCQQFWTTPYTFGGGTKVEIK
Return: 940 pM
